Tested on: PDAC211T
EXPERIMENT DESCRIPTION: Cell viability (CellTiter-Blue), IC50 on PDAC211T
Format: cell-based, human
APPLIED CONDITIONS: Homo sapiens, 72 h treatment
pIC50: −log10 of the molar value.
If the reported pIC50 equals or exceeds 6, assign True. If not, assign False.

MOLECULE	STUDY SYSTEM	LABEL VALUE
CC[C@@H](C(=O)[C@@H](C)[C@@H](O)[C@H](C)[C@@H]1O[C@@H]([C@@H](CC)C(=O)OC2O[C@@H]3O[C@]4(C)CC[C@H]5[C@H](C)CC[C@@H]([C@H]2C)[C@@]35OO4)CC[C@@H]1C)[C@H]1O[C@]2(C=C[C@@H](O)[C@]3(CC[C@@](C)([C@H]4CC[C@](O)(CC)[C@H](C)O4)O3)O2)[C@H](C)C[C@@H]1C (some centres unmarked) [MA-I-023, Salinomycin-dihydroartemisinin prodrug]	PDAC211T	False
C#CCN[C@H]1C=C[C@]2(O[C@H]([C@@H](CC)C(=O)[C@@H](C)[C@@H](O)[C@H](C)[C@@H]3O[C@@H]([C@@H](CC)C(=O)OC4O[C@@H]5O[C@]6(C)CC[C@H]7[C@H](C)CC[C@@H]([C@H]4C)[C@@]57OO6)CC[C@@H]3C)[C@@H](C)C[C@H]2C)O[C@@]12CC[C@@](C)([C@H]1CC[C@](O)(CC)[C@H](C)O1)O2 (some centres unmarked)	PDAC211T	True
C#CCN[C@@H]1C=C[C@]2(O[C@H]([C@@H](CC)C(=O)[C@@H](C)[C@@H](O)[C@H](C)[C@@H]3O[C@@H]([C@@H](CC)C(=O)OC4O[C@@H]5O[C@]6(C)CC[C@H]7[C@H](C)CC[C@@H]([C@H]4C)[C@@]57OO6)CC[C@@H]3C)[C@@H](C)C[C@H]2C)O[C@@]12CC[C@@](C)([C@H]1CC[C@](O)(CC)[C@H](C)O1)O2 (some centres unmarked) [MA-I-062, Ironomycin-dihydroartemisinin prodrug]	PDAC211T	True
CC[C@@H](C(=O)OC1O[C@@H]2O[C@]3(C)CC[C@H]4[C@H](C)CC[C@@H]([C@H]1C)[C@@]24OO3)[C@@H]1O[C@@H]([C@@H](C)[C@H](O)[C@H](C)C(=O)[C@H](CC)[C@H]2O[C@]3(C=C[C@@H](NC4CC4)[C@]4(CC[C@@](C)([C@H]5CC[C@](O)(CC)[C@H](C)O5)O4)O3)[C@H](C)C[C@@H]2C)[C@@H](C)C[C@@H]1C (some centres unmarked)	PDAC211T	True
CC[C@@H](C(=O)OC1O[C@@H]2O[C@]3(C)CC[C@H]4[C@H](C)CC[C@@H]([C@H]1C)[C@@]24OO3)[C@@H]1O[C@@H]([C@@H](C)[C@H](O)[C@H](C)C(=O)[C@H](CC)[C@H]2O[C@]3(C=C[C@@H](O)[C@]4(CC[C@@](C)([C@H]5CC[C@](O)(CC)[C@H](C)O5)O4)O3)[C@H](C)C[C@@H]2C)[C@@H](C)C[C@@H]1C (some centres unmarked) [MA-I-081, narasin-dihydroartemisinin prodrug]	PDAC211T	True
C[C@H]1[C@@H](O)O[C@@H]2O[C@@]3(C)CC[C@H]4[C@H](C)CC[C@@H]1[C@@]24OO3 [DHA, dihydroartemisinin, reference compound]	PDAC211T	False

The reported measurements were obtained from patent US20250250285A1.
